Field: normalised response. Provide a value for each of the compounds that follow.
System: MDA-MB-436
Experiment: normalised response (% of control), CellTiter-Glo; higher = more viable cells (100 = DMSO, 0 = benzethonium chloride kill control)
Settings: incubation time: 72 h
Enter your answer as a number in %; do not include the unit.

Report normalised response for CC/C(=C(\c1ccccc1)c1ccc(OCCN(C)C)cc1)c1ccccc1 [Tamoxifen] (100 nM) please.
99.1

Report normalised response for O=C(O)CC[C@H]1CC[C@@](c2cc(F)ccc2F)(S(=O)(=O)c2ccc(Cl)cc2)CC1 [MK-0752] (10 nM) please.
99.7

Report normalised response for CC(C)C(=O)Nc1ccc([N+](=O)[O-])c(C(F)(F)F)c1 [Flutamide] (100 nM) please.
102

----------
Test system: CAL-51
Test: normalised viability (% of control), CellTiter-Blue; higher = more viable cells (about 100 = DMSO control)
Conditions: 30 nM; incubation time: 72 h
Field: normalised viability. Provide a value for each of the molecules that follow.
Enter your answer as a number in %; do not include the unit.

Hello, I am looking for reported normalised viability with CAL-51 for CC/C(=C(\c1ccccc1)c1ccc(OCCN(C)C)cc1)c1ccccc1 . Could you help?
92.2

Hello, I am looking for reported normalised viability with CAL-51 for Nc1nc(Cl)nc2c1ncn2[C@@H]1O[C@H](CO)[C@@H](O)[C@@H]1F . Could you help?
102

Hello, I am looking for reported normalised viability with CAL-51 for C[C@@H]1C[C@H]2[C@@H]3CCC4=CC(=O)C=C[C@]4(C)[C@@]3(F)[C@@H](O)C[C@]2(C)[C@@]1(O)C(=O)CO . Could you help?
91.9

Hello, I am looking for reported normalised viability with CAL-51 for O=C(c1cc(Cc2n[nH]c(=O)c3ccccc23)ccc1F)N1CCN(C(=O)C2CC2)CC1 . Could you help?
98.5

Hello, I am looking for reported normalised viability with CAL-51 for C[C@]12C=CC(=O)C=C1CC[C@@H]1[C@@H]2C(=O)C[C@@]2(C)[C@H]1CC[C@]2(O)C(=O)CO . Could you help?
98.3

Hello, I am looking for reported normalised viability with CAL-51 for O=NN(CCCl)C(=O)NC1CCCCC1 . Could you help?
109

Hello, I am looking for reported normalised viability with CAL-51 for CCN(CC)CCOc1ccc(C(=C(Cl)c2ccccc2)c2ccccc2)cc1 . Could you help?
90.3

----------
System: DU-4475
Assay: drug sensitivity score (DSS), CellTiter-Glo (DSS (AUC-based score)); higher = stronger drug effect (viability inhibition or cytotoxicity); extreme values may be limits of the assay
Conditions: incubation time: 72 h
Field: drug sensitivity score. Provide a value for each of the molecules that follow.
Field format: numeric only.

Report drug sensitivity score for CCCc1cc(C)[nH]c(=O)c1CNC(=O)c1cc(-c2ccnc(N3CCN(C)CC3)c2)cc2c1cnn2C(C)C [GSK343] please.
1.22

Report drug sensitivity score for NC(=O)NO [Hydroxyurea] please.
0

Report drug sensitivity score for CC/C(=C(\c1ccccc1)c1ccc(OCCN(C)C)cc1)c1ccccc1 [Tamoxifen] please.
0

Report drug sensitivity score for C[C@]12C=CC(=O)C=C1CC[C@@H]1[C@@H]2C(=O)C[C@@]2(C)[C@H]1CC[C@]2(O)C(=O)CO [Prednisone] please.
0

Report drug sensitivity score for O=C(c1cc(Cc2n[nH]c(=O)c3ccccc23)ccc1F)N1CCN(C(=O)C2CC2)CC1 [Olaparib] please.
0

Report drug sensitivity score for NC(=O)c1cccc2cn(-c3ccc([C@@H]4CCCNC4)cc3)nc12 [MK-4827] please.
2.22

Report drug sensitivity score for CC(C)NC[C@@H](C(=O)N1CCN(c2ncnc3c2[C@H](C)C[C@H]3O)CC1)c1ccc(Cl)cc1 [GDC-0068] please.
1.13

Report drug sensitivity score for CN1CCc2c(c3ccccc3n2Cc2ccc(C(=O)NO)cc2)C1 [Tubastatin A] please.
0

Report drug sensitivity score for CC[C@H](CC#N)OC(=O)N[C@@H](C)c1cccc(NC(=O)Nc2ccc(-c3cnco3)c(OC)c2)c1 [AVN944] please.
13.4

Report drug sensitivity score for CCCCCOC(=O)Nc1nc(=O)n([C@@H]2O[C@H](C)[C@@H](O)[C@H]2O)cc1F [Capecitabine] please.
0

Report drug sensitivity score for CCc1c(C(=O)C(N)=O)c2c(OCC(=O)O)cccc2n1Cc1ccccc1 [Varespladib] please.
0

Report drug sensitivity score for CC(C)(C)Cn1c(N)nc2ccc(-c3[nH]c(C(C)(C)C)nc3-c3ccc(F)cc3)nc21 please.
0

Report drug sensitivity score for COc1cc2c(Oc3ccc(NC(=O)C4(C(=O)Nc5ccc(F)cc5)CC4)cc3F)ccnc2cc1OCCCN1CCOCC1 [Foretinib] please.
0

Report drug sensitivity score for N[C@@H](Cc1ccc(N(CCCl)CCCl)cc1)C(=O)O [Melphalan] please.
19.1

Report drug sensitivity score for NC1(c2ccc(-c3nc4ccn5c(=O)[nH]nc5c4cc3-c3ccccc3)cc2)CCC1 [MK-2206] please.
0.0487
